tested on: HepG2; experiment: GSK_TCMDC: Percent inhibition of human HepG2 cell line. Test compounds present at 10uM.; assay type: functional
METRIC: Inhibition (%)
Report the value in % with no unit label.

Example molecules with recorded Inhibition:
molecule=CS(=O)(=O)Nc1cccc(-c2cnc3[nH]cc(-c4ccc(CN)cc4)c3c2)c1 assay_system=HepG2 metric=Inhibition value=27
molecule=O=C(Cn1c(CCc2cccc(F)c2F)nc(=O)c2ccccc21)N(CCN1CCCCC1)Cc1ccc(-c2ccc(C(F)(F)F)cc2)cc1.O=C(O)C(O)C(O)C(=O)O assay_system=HepG2 metric=Inhibition value=32
molecule=COc1ccc(O)cc1Cc1cnc2nc(N)nc(N)c2c1C assay_system=HepG2 metric=Inhibition value=67
molecule=O=C(O)C(F)(F)F.c1cc(-c2ccc(CNCCCn3ccnc3)cc2)cc(-c2nc3ccccc3[nH]2)c1 assay_system=HepG2 metric=Inhibition value=17
molecule=COc1ccc(NC(=O)[C@H](Cc2ccccc2)Nc2cc(C)nc(NCCc3ccccc3)n2)cc1.O=C(O)C(F)(F)F assay_system=HepG2 metric=Inhibition value=6

Next up:
Just so you know, measured Inhibition for O=C(NCC1Cc2cc(Oc3ccccc3)ccc2O1)c1ccc([N+](=O)[O-])o1 (stereo not given) came out at 83
